STUDY SYSTEM: UniProtKB P32245
PROCEDURE SUMMARY: Agonist activity at wild type human melanocortin-4 receptor expressed in HEK293 cells co-transfected with CRE/beta-galactosidase reporter gene assessed as stimulatory response after 6 hrs
Format: functional, cell-based
PROTOCOL CONDITIONS: hek293
pEC50: −log10 of the molar value. Where a SMILES comes first, the peptide text is derived from it. [ ]: non-standard residue; d: D form. Tic = O=C(O)[C@@H]1Cc2ccccc2CN1
PARAMETER MEASURED: pEC50

[
  {
    "MOLECULE": "CC(=O)N1Cc2ccccc2C[C@H]1C(=O)N[C@H](Cc1ccccc1)C(=O)N[C@@H](CCCNC(=N)N)C(=O)N[C@@H](Cc1c[nH]c2ccccc12)C(N)=O (Ac-[Tic][dF]RW-NH2)",
    "RECORDED VALUE": 7.82
  },
  {
    "MOLECULE": "CC(=O)N[C@@H](Cc1c[nH]cn1)C(=O)N[C@H](Cc1ccccc1)C(=O)N1Cc2ccccc2C[C@H]1C(=O)N[C@@H](Cc1c[nH]c2ccccc12)C(N)=O",
    "RECORDED VALUE": 6.69
  }
]

====

STUDY SYSTEM: Melanocortin receptor 4 (Homo sapiens, UniProt P32245, L106P)
Sequence (P32245 whole entry L106P): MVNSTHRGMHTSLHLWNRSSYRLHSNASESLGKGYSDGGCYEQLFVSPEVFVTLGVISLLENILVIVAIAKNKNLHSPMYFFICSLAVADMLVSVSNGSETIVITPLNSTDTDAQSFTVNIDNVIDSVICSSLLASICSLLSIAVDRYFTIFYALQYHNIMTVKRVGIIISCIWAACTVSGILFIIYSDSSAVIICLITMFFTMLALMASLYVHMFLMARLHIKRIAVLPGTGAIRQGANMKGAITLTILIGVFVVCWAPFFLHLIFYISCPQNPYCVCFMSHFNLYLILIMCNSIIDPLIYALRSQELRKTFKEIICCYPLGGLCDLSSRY
PROCEDURE SUMMARY: Agonist activity at human melanocortin-4 receptor L106P mutant expressed in HEK293 cells co-transfected with CRE/beta-galactosidase reporter gene assessed as stimulatory response after 6 hrs
Format: functional, cell-based
PROTOCOL CONDITIONS: hek293
Where a SMILES comes first, the peptide text is derived from it. [ ]: non-standard residue; d: D form. Tic = O=C(O)[C@@H]1Cc2ccccc2CN1
Catalogue of compounds with associated EC50

[
  {
    "COMPOUND": "CC(=O)N1Cc2ccccc2C[C@H]1C(=O)N[C@H](Cc1ccccc1)C(=O)N[C@@H](CCCNC(=N)N)C(=O)N[C@@H](Cc1c[nH]c2ccccc12)C(N)=O (Ac-[Tic][dF]RW-NH2)",
    "READING UNIT": "µM",
    "EC50": 4.94
  },
  {
    "COMPOUND": "CC(=O)N[C@@H](Cc1c[nH]cn1)C(=O)N[C@H](Cc1ccccc1)C(=O)N1Cc2ccccc2C[C@H]1C(=O)N[C@@H](Cc1c[nH]c2ccccc12)C(N)=O",
    "READING UNIT": "µM",
    "EC50": 18.8
  }
]

====

STUDY SYSTEM: Melanocortin receptor 4 (Homo sapiens, UniProt P32245)
Sequence (P32245 whole entry): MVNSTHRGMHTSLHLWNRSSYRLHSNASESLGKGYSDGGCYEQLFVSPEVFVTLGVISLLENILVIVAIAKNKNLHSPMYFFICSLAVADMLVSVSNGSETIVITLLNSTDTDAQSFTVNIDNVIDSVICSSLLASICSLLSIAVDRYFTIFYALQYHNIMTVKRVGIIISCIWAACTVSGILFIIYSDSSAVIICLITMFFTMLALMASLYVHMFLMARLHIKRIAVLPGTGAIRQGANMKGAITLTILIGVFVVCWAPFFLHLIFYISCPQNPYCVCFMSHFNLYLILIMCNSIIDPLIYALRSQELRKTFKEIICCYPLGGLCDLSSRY
PROCEDURE SUMMARY: Agonist activity at wild type human melanocortin-4 receptor expressed in HEK293 cells co-transfected with CRE/beta-galactosidase reporter gene assessed as stimulatory response after 6 hrs
Format: functional, cell-based
pEC50: −log10 of the molar value. Where a SMILES comes first, the peptide text is derived from it. [ ]: non-standard residue; d: D form.
Note to self: values exactly at 7 are met. So pEC50 at or above 7 is met, below is not met.

[
  {
    "MOLECULE": "CC(=O)N[C@@H](Cc1c[nH]cn1)C(=O)N[C@H](Cc1ccc(I)cc1)C(=O)N1Cc2ccccc2C[C@H]1C(=O)N[C@H](Cc1ccc([N+](=O)[O-])cc1)C(N)=O",
    "QUALITATIVE LABEL": "met"
  },
  {
    "MOLECULE": "CC(=O)N[C@@H](CCCNC(=N)N)C(=O)N[C@H](Cc1ccc(Cl)cc1)C(=O)N1Cc2ccccc2C[C@H]1C(=O)N1Cc2ccccc2C[C@H]1C(N)=O",
    "QUALITATIVE LABEL": "not met"
  },
  {
    "MOLECULE": "CC(=O)N[C@@H](CCCNC(=N)N)C(=O)N[C@H](Cc1ccccc1)C(=O)N[C@@H](CCCNC(=N)N)C(=O)N[C@@H](Cc1c[nH]c2ccccc12)C(N)=O",
    "QUALITATIVE LABEL": "met"
  },
  {
    "MOLECULE": "CC(=O)N[C@@H](Cc1c[nH]cn1)C(=O)N[C@H](Cc1ccc(Cl)cc1)C(=O)N1Cc2ccccc2C[C@H]1C(=O)N[C@H](Cc1ccc([N+](=O)[O-])cc1)C(N)=O",
    "QUALITATIVE LABEL": "met"
  },
  {
    "MOLECULE": "CC(=O)N[C@H](CCCNC(=N)N)C(=O)N[C@H](Cc1ccccc1)C(=O)N[C@@H](CCCNC(=N)N)C(=O)N[C@@H](Cc1c[nH]c2ccccc12)C(N)=O",
    "QUALITATIVE LABEL": "met"
  },
  {
    "MOLECULE": "CC(=O)N1Cc2ccccc2C[C@H]1C(=O)N[C@H](Cc1ccc(I)cc1)C(=O)N1Cc2ccccc2C[C@H]1C(=O)N[C@H](Cc1ccc([N+](=O)[O-])cc1)C(N)=O",
    "QUALITATIVE LABEL": "met"
  },
  {
    "MOLECULE": "CC(=O)N1Cc2ccccc2CC1C(=O)N[C@H](Cc1ccc(Cl)cc1)C(=O)N[C@@H](CCCNC(=N)N)C(=O)N[C@@H](Cc1ccc(I)cc1)C(N)=O (stereo not given in full)",
    "QUALITATIVE LABEL": "met"
  },
  {
    "MOLECULE": "CC(=O)N[C@@H](Cc1cnc[nH]1)C(=O)N[C@H](Cc1ccccc1)C(=O)N[C@@H](CCCCN)C(=O)N[C@@H](Cc1c[nH]c2ccccc12)C(N)=O",
    "QUALITATIVE LABEL": "met"
  },
  {
    "MOLECULE": "CC(=O)N[C@@H](Cc1ccc(O)cc1)C(=O)N[C@H](Cc1ccccc1)C(=O)N[C@@H](CCCNC(=N)N)C(=O)N[C@@H](Cc1c[nH]c2ccccc12)C(N)=O (Ac-Y[dF]RW-NH2)",
    "QUALITATIVE LABEL": "met"
  },
  {
    "MOLECULE": "CC(=O)N[C@@H](CCCNC(=N)N)C(=O)N[C@H](Cc1ccc(Cl)cc1)C(=O)N1Cc2ccccc2CC1C(=O)N[C@@H](Cc1ccc(I)cc1)C(N)=O (stereo not given in full)",
    "QUALITATIVE LABEL": "met"
  },
  {
    "MOLECULE": "CC(=O)N[C@@H](Cc1c[nH]c2ccccc12)C(=O)N[C@H](Cc1ccccc1)C(=O)N[C@@H](CCCN=C(N)N)C(=O)N[C@@H](Cc1c[nH]c2ccccc12)C(N)=O (Ac-W[dF]RW-NH2)",
    "QUALITATIVE LABEL": "met"
  },
  {
    "MOLECULE": "CC(=O)N1Cc2ccccc2C[C@H]1C(=O)N[C@H](Cc1ccc(I)cc1)C(=O)N[C@@H](CCCNC(=N)N)C(=O)N1Cc2ccccc2C[C@H]1C(N)=O",
    "QUALITATIVE LABEL": "not met"
  },
  {
    "MOLECULE": "CC(=O)N[C@@H](CCCNC(=N)N)C(=O)N[C@H](Cc1ccc(I)cc1)C(=O)N1Cc2ccccc2C[C@H]1C(=O)N1Cc2ccccc2C[C@H]1C(N)=O",
    "QUALITATIVE LABEL": "not met"
  }
]
